The reported measurements were obtained from patent US20210395313A1.

Target: human PAC1 receptor (Homo sapiens, UniProt P41586)
Construct: SHSY-5Y (human neuroblastoma cell line) and RG-2 (rat glioma cell line) cells endogenously express human and rat PAC1 receptors, respectively; endogenous in cells; host or cells: SHSY-5Y human neuroblastoma cells
Sequence (P41586 21-468): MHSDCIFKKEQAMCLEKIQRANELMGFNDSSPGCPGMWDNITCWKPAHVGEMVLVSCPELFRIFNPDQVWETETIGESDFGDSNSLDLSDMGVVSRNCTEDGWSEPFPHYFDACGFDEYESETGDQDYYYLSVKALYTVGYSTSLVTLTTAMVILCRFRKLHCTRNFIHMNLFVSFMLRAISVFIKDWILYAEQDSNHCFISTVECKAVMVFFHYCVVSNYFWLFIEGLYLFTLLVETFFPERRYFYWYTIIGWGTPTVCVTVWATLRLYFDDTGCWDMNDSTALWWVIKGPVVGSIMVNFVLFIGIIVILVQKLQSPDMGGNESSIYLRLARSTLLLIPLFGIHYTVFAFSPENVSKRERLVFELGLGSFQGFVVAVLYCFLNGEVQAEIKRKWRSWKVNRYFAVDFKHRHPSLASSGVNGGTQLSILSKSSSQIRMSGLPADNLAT
Assay: LANCE Ultra cAMP accumulation antagonist assay in SHSY-5Y cells;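 note: inhibition of cAMP accumulation evoked by PAC1 agonist at its EC80 in SHSY-5Y cells endogenously expressing receptor, 30 min preincubation then 15 min agonist, TR-FRET readout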
Type: cell-based
pIC50: −log10 of the molar value. Bridges are numbered along the chain shown (N, C = ends). Where no end group is shown, it is not given here.
Endpoint: pIC50

Some solved cases for reference:
CDATCQFRKAIDDCWMLSWHANVPGSVFKACMKQKKKEFKAG-NH2 (disulfide 1-5, 14-31) [compound 92] : 9.00 to 11.00
CDATCQFRKAIDDCHLLAWHANVPGSVFKACMKQKKKEFKAG-NH2 (disulfide 1-5, 14-31) [compound 140] : 9.00 to 11.00
CDATCQFRKAIDDCAKQAHHSNVPGSVFKACIKQKKKEFKAG-NH2 (disulfide 1-5, 14-31) [compound 14] : 9.00 to 11.00
CDATCQFRKAIDDCQKQAHHSNVPGSVFKACMKQKKKEFKAR (disulfide 1-5, 14-31) [compound 68] : 9.00 to 11.00
CDATCQFRKAIDDCDRQAHHSNVPGSVFKACMKQKKKEFKAGH (disulfide 1-5, 14-31) [compound 155] : 7.00 to 9.00
CDATCQFRKAIDDCFYQAWHSNVPGSVWKACMKQKKKEFKAG-NH2 (disulfide 1-5, 14-31) [compound 139] : 9.00 to 11.00

Take each entry in turn and give its pIC50.
1. CDATCQFRKAIDDCVRQAHHSNVPGSVFKACMKQKKKEWKAGH (disulfide 1-5, 14-31) [SEQ ID NO 156]
2. CDATCQFRKAIDDCQKQAHHSNVPGNSFKECMKQKKKEFKAGK (disulfide 1-5, 14-31) [compound 363]
3. CDATCQFRKAIDDCAWFALHSNVPGSVFKACMKQKKKEFKAG-NH2 (disulfide 1-5, 14-31) [compound 91]
4. CDATCQFRKAIDDCQKQAHHSNVPGSVFKACLVQKKKEFKAG-NH2 (disulfide 1-5, 14-31) [compound 101]
5. SDATSQYRKGLVACLYKKVAMQKRYSVFKACMKQKKKEWKAG-NH2 (disulfide 14-31) [compound 426]
6. CDATCQFRKAIDDCDRQAHHSNVPGSVFKACMKQKKKEWKAG (disulfide 1-5, 14-31) [compound 81]
7. CDATCQFRKAIDDCVFWAAHSNVPGSVFKACMKQKKKEFKAG-NH2 (disulfide 1-5, 14-31) [compound 136]

Reply:
1: 9.00 to 11.00; 2: 7.00 to 9.00; 3: 9.00 to 11.00; 4: 7.00 to 9.00; 5: 7.00 to 9.00; 6: 7.00 to 9.00; 7: 9.00 to 11.00

Ask: I would be grateful if you could share the reported pIC50 for CDATCQFRKAIDDCQKQAHHSNVPGSVFKACMKFRFNVWKAG-NH2 (disulfide 1-5, 14-31) [compound 127] .
Reply: 9.00 to 11.00
